# protocol_notes: In vitro stability (half-life) in phosphate buffered saline (PBS) pH 7.4
# Assay type: physicochemical
# details: pH 7.4, 5 μM, PBS pH 7.4, 37° C., read-out: T1/2 (minutes) PBS
# Experimental: Certain compounds from Tables 1 and 2 and CXL-1020 were tested for their stability in phosphate buffered saline (PBS) and plasma. The assay system comprised (i) PBS, or plasma from rat, dog or human (at least 3 donors, male, pooled) at pH 7.4, and (ii) for tests conducted in plasma, an anticoagulant (sodium heparin or sodium citrate). […] Half-lives (T1/2) of the test compounds were determined from graphs of the percent remaining values using the peak area response ratio. […]
Returns: string. Value is fulfilled if measured half-life at 5 μM is below 40 min, and not fulfilled if it is greater than or equal to it.

Q: Criterion: half-life at 5 μM strictly below 40 min. Is it met by Cc1oncc1S(=O)(=O)NO [Compound 3] ?
A: not fulfilled

Q: Criterion: half-life at 5 μM strictly below 40 min. Is it met by CC(=O)N1CCc2cc(Br)c(S(=O)(=O)NO)cc21 [Compound 9] ?
A: fulfilled

Q: Criterion: half-life at 5 μM strictly below 40 min. Is it met by O=S(=O)(NO)c1cc(Cl)c(Cl)s1 [Compound 12] ?
A: fulfilled

Q: Criterion: half-life at 5 μM strictly below 40 min. Is it met by Cc1ccc(S(=O)(=O)NO)c(F)c1 [Compound 14] ?
A: not fulfilled

Q: Criterion: half-life at 5 μM strictly below 40 min. Is it met by CC(C)NC(=O)c1ccc(S(=O)(=O)NO)s1 [Compound 22] ?
A: fulfilled
